Target: REFACTO® factor VIII-like polypeptide (amino acids 1-743 and 1638 through 2332 of human factor VIII) (human) (UniProt P00451)
Sequence (P00451 20-762, chain 1 of 2): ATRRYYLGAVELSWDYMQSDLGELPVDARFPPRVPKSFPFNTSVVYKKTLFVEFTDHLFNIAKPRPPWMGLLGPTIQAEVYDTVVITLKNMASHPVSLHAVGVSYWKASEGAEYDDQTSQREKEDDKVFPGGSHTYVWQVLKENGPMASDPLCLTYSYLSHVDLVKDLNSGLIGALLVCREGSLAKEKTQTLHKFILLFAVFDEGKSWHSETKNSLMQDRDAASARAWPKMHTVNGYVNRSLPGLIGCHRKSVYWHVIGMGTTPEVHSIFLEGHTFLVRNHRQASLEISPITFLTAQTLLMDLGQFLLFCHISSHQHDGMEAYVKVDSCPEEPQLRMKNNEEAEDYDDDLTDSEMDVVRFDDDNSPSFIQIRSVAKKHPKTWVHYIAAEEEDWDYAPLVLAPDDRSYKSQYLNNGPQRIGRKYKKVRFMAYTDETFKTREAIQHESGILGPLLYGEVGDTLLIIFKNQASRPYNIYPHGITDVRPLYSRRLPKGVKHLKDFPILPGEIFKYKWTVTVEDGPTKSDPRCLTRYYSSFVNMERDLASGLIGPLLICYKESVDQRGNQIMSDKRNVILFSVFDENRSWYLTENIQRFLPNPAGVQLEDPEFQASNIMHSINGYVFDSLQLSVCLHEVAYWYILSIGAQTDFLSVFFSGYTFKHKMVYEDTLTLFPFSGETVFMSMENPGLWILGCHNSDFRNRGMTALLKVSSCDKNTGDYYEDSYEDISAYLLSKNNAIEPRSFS
Sequence (P00451 1657-2351, chain 2 of 2): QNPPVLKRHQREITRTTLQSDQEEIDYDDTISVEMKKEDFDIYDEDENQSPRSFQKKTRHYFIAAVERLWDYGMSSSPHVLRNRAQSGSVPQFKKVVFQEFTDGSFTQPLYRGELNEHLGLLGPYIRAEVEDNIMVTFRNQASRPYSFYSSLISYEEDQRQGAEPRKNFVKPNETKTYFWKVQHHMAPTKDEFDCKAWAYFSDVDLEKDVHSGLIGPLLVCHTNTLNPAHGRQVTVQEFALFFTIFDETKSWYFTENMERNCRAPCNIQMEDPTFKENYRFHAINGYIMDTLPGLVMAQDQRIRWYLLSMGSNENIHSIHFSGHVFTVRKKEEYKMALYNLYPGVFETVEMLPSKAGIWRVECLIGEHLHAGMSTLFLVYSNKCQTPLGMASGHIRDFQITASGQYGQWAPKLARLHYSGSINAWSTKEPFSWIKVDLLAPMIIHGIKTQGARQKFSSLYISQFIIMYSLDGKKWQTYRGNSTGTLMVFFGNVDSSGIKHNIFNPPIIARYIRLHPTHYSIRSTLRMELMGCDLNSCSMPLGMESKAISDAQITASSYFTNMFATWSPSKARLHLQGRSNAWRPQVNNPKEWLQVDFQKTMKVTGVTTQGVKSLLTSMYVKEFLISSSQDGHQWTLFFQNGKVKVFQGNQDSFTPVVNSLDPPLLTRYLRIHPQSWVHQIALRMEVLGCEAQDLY
Experiment: affinity column of immobilised peptide; fractions by RP-HPLC
Positions of bridges follow the written chain, without caps; N, C: chain ends. No end group written: not given here. *: point of attachment. NHNH2 = NN*
PROPERTY: % recovery in Elution A (%)

- AEGTGDFHCIGVWFCLHDPGPEGGGS-NHNH2 (disulfide 9-15 (inferred)) [Affinity ligand CS-455]: 1.4
- AEGTGDFCWVFPFQHCADPGPEGGGS-NHNH2 (disulfide 8-16 (inferred)) [Affinity ligand CS-459]: 42.1
- AEGTGDFCWVFAFDHCHDPGPEGGGS-NHNH2 (disulfide 8-16 (inferred)) [Affinity ligand CS-458]: 54.3
